- TARGET OR TEST SYSTEM: human recombinant PDE10 enzyme (PDE10A) (Homo sapiens, UniProt Q9Y233)
- METHOD: PDE10 scintillation proximity assay (SPA), inhibition of human recombinant PDE10 enzyme activity
- ASSAY CONDITIONS: geometric mean of 2-4 determinations unless otherwise indicated (b: ≧5 determinations; c: single determination)
QUANTITY: IC50 (nM)

Worked cases, answers included:
// sample COc1ccc2c(c1)CCN(c1ncnn3c(C)nc([C@@H]4CCOC4)c13)C2 [Example 58] , its IC50 was 1.12

The recorded IC50 for Cc1nc([C@@H]2CCOC2)c2c(N3CCc4nc(C5CC5)oc4C3)ncnn12 [Example 9] is 1.14

Quick note, IC50 for Cc1nc(-c2ccccc2F)c2c(N3CCc4c(c(C(F)(F)F)nn4C)C3)ncnn12 [Example 118] landed at 1.28

For reference, reported IC50 for Cc1nc(C2CCOCC2)c2c(N3CCc4c(c(C(C)C)nn4C)C3)ncnn12 [Example 21] stands at 0.876

Reported IC50 for COc1ccc2c(n1)CCN(c1ncnn3c(C)nc([C@@H]4CCOC4)c13)C2 [Example 27] was 0.891

I: CCOc1nc(C2CC2)nc2c1CN(c1ncnn3c(C)nc([C@@H]4CCOC4)c13)CC2 [Example 148]
II: Cc1nc([C@@H]2CCOC2)c2c(N3Cc4c(cnn4C)[C@H](C)C3)ncnn12 (single isomer, unassigned) [Example 20]
III: CCc1c2c(nn1C)CCN(c1ncnn3c(C)nc([C@@H]4CCOC4)c13)C2 [Example 57]
Task item: Sort the 3 compounds by IC50; largest first, smallest last. The reply should contain the labels ordered as requested.
Reply: III, II, I

* * *

- TARGET OR TEST SYSTEM: human recombinant PDE10 enzyme (PDE10A) (Homo sapiens)
- METHOD: PDE10 scintillation proximity assay (SPA), inhibition of human recombinant PDE10 enzyme activity
- ASSAY CONDITIONS: geometric mean of 2-4 determinations unless otherwise indicated (b: ≧5 determinations; c: single determination)
pIC50: −log10 of the molar value.
QUANTITY: pIC50

pIC50 on human recombinant PDE10 enzyme (PDE10A) (Homo sapiens) for Cc1nc(-c2ccccc2F)c2c(N3CCc4ccc(C5CC5)nc4C3)ncnn12 is 8.22

Short answer on human recombinant PDE10 enzyme (PDE10A) (Homo sapiens) for Cc1nc([C@H]2CCOC2)c2c(N3CCc4ncccc4C3)ncnn12 , pIC50: 8.32

Recorded pIC50 for Cc1ncc2c(n1)CCN(c1ncnn3c(C)nc([C@@H]4CCOC4)c13)C2 on human recombinant PDE10 enzyme (PDE10A) (Homo sapiens) was 8.35

* * *

- TARGET OR TEST SYSTEM: rat PDE10 enzyme (Rattus norvegicus (Rat), UniProt Q9QYJ6)
- Sequence (Q9QYJ6 24-794): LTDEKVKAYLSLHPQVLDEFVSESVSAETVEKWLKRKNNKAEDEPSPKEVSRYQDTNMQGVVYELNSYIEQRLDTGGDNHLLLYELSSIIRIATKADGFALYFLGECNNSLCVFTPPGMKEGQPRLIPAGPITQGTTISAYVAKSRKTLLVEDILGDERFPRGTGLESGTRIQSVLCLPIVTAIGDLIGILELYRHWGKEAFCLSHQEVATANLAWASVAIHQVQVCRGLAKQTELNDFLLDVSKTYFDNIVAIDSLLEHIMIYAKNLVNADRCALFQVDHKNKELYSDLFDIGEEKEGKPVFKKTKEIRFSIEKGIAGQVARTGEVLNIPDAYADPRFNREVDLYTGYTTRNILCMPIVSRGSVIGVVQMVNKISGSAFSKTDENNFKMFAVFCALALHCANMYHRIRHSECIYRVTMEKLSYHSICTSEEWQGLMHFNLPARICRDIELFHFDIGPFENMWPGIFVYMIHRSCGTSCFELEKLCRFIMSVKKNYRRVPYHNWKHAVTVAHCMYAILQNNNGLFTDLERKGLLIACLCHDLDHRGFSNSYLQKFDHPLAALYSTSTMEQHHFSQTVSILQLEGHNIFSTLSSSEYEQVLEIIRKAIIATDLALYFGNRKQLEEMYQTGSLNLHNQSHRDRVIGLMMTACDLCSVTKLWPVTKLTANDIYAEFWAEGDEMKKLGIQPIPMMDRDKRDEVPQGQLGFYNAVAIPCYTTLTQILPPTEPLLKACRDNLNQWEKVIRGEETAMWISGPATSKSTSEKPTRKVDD
Parameter: IC50. Scope: all listed entries.
Expressed in nM, but write only the number.

get_value(item= Cc1cc2c(cn1)CN(c1ncnn3c(C)nc([C@@H]4CCOC4)c13)CC2 , readout=IC50) returns 1.19

Others:
The reported value for Cc1ccc2c(n1)CCN(c1ncnn3c(C)nc([C@@H]4CCOC4)c13)C2 in terms of IC50 is 0.27

* * *

Consider the following compounds and their measured IC50 readings.
- TARGET OR TEST SYSTEM: rat PDE10 enzyme (Rattus norvegicus (Rat), UniProt Q9QYJ6)

Bench note, rat PDE10 enzyme (Rattus norvegicus (Rat), UniProt Q9QYJ6): entry Cc1nc(C2CCOCC2)c2c(N3CCc4nc(C5CC5)ncc4C3)ncnn12 , its IC50 = < 3.52 nM

GET /values?item= Cc1nc(C2CC2)nc2c1CN(c1ncnn3c(C)nc([C@@H]4CCOC4)c13)CC2 &system= rat PDE10 enzyme (Rattus norvegicus (Rat), UniProt Q9QYJ6) returns IC50: < 0.175 nM

Continuing:
The compound Cc1nc2c(s1)CN(c1ncnn3c(C)nc([C@H]4CCOC4)c13)CC2 , tested on rat PDE10 enzyme (Rattus norvegicus (Rat), UniProt Q9QYJ6), showed IC50 of < 5.55 nM
